Provide the reported % Transporter Occupancy, DAT of each item.
- System under test: DA Transporter (DAT) Sites in Mouse Brain (Mus musculus, UniProt Q61327)
- Construct: Striatum was used to determine occupancy of DA transporter sites; from tissue; host or cells: C57BL/6 mouse striatum homogenate
- Sequence (Q61327 whole entry): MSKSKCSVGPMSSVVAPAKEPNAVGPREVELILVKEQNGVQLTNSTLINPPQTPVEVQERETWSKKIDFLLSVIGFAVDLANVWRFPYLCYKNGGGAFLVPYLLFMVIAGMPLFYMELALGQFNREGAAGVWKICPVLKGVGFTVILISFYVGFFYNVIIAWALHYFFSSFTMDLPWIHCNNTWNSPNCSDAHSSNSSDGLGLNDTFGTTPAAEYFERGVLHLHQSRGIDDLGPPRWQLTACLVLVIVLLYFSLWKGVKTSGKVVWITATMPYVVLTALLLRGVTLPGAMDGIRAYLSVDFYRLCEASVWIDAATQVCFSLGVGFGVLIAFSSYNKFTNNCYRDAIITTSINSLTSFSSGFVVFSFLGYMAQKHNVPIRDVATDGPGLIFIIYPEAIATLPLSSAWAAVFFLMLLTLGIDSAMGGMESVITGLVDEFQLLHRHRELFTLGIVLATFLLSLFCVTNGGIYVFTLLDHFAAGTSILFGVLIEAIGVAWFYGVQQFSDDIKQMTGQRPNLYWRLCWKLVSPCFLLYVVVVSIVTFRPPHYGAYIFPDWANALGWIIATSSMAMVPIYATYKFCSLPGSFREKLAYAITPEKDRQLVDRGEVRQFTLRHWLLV
- Assay comment: Ex vivo [3H] WIN 35428 binding after oral dosing
- Set-up: species or system C57BL/6 mice
- Details: 1 mg/kg, 60 minutes after treatment, vs vehicle
Numbers only, in %.

# Molecule, System under test, Value units, % Transporter Occupancy, DAT
data = [
    ("CC(N(C)C)C1(c2ccc3ccccc3c2)CCCCC1 (single isomer, unassigned) [56 E1]", "DA Transporter (DAT) Sites in Mouse Brain (Mus musculus, UniProt Q61327)", "%", 5),
]

Would you be so kind as to report % Transporter Occupancy, DAT for each listed record?
1. CN(C)CC1(c2ccc(Cl)c(Cl)c2)CCC(C)(O)CC1 (centres unmarked) [Compound 277]
2. CN(C)C[C@]1(c2ccc3ccccc3c2)CC[C@](C)(O)CC1 [Compound 225]

Result:
[17, 3]

Would you be so kind as to report % Transporter Occupancy, DAT for each listed record?
1. CNC(C)C1(c2ccc3ccccc3c2)CCCCC1 (single isomer, unassigned) [58 E1]
2. CNCC1(c2ccc(Cl)c(Cl)c2)CCC(C)(O)CC1 (centres unmarked) [Compound 276]

Result:
7
-21
